B1: VH:VL chains; a variant is named by its letters at X, in order (parent)
chain 1: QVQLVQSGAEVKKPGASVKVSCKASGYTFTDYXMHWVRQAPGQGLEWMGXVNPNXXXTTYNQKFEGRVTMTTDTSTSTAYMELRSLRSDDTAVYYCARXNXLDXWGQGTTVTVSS
chain 2: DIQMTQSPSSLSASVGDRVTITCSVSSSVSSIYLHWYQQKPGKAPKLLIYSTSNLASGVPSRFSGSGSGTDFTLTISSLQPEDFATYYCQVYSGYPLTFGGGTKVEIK

- Variants of: B1
- assay-name: yeast display scFab, FACS + sequencing
- reported-conditions: with MET
The list shows a part of the results. The true hit rate is not given.

# mut, antigen binding call
data = [
    ("VEGEDAAA", "no binding"),
    ("VRRGSSAF", "binds"),
    ("FRTGDDSF", "no binding"),
    ("VRTGGAAA", "binds"),
    ("YARADDGD", "no binding"),
    ("VRGRSDVF", "no binding"),
    ("VTKGGSSA", "no binding"),
    ("VAEKGSSA", "no binding"),
    ("VRGRSSLF", "binds"),
    ("VRRGSSAD", "binds"),
    ("VRRGGSAA", "binds"),
    ("SEARNDGA", "no binding"),
    ("FRTGDAVF", "binds"),
    ("VETGGAAA", "no binding"),
    ("VRRGGAAA", "binds"),
    ("FRTGDAVS", "binds"),
    ("YREKGSSA", "binds"),
    ("VAEKGDVF", "no binding"),
    ("VETGGAVA", "no binding"),
    ("DATGGSSV", "no binding"),
    ("DAKEGDAV", "no binding"),
    ("YATEAFSD", "no binding"),
]

FYI, the data here is from the emibetuzumab library of Makowski et al. (2022).
